# STUDY TARGET: Renin (Homo sapiens)
# Sequence (P00797 whole entry): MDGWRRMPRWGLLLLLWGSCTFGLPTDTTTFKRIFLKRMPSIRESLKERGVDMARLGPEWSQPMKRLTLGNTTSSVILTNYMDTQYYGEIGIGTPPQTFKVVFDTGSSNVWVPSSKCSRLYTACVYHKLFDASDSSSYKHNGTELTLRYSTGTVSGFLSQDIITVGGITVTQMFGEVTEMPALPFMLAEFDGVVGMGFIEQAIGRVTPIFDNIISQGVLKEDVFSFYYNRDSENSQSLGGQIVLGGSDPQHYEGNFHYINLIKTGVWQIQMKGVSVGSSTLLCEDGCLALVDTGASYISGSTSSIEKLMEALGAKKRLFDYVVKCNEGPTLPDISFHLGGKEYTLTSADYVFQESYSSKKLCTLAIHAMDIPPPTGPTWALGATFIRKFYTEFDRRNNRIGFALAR
# EXPERIMENTAL DETAILS: […]
Listed next: entries and their corresponding pIC50.
Please express pIC50 as -log10 of the molar concentration.

Worked examples follow.
COMPOUND	pIC50
CC(C)C[C@H](NC(=O)[C@H](Cc1ccccc1)NC(=O)CC1CS(=O)(=O)c2ccccc21)C(=O)N[C@@H](CC1CCCCC1)[C@@H](O)CC(=O)NCCCC(=O)O (stereo partly specified)	7.26
CC(C)C[C@H](NC(=O)[C@H](Cc1ccccc1)NC(=O)CC1CS(=O)(=O)c2ccccc21)C(=O)N[C@@H](CC1CCCCC1)[C@@H](O)CC(=O)NCCCN(C)C (stereo partly specified)	7.02
CC(C)C[C@H](NC(=O)[C@H](Cc1ccccc1)NC(=O)CCCN1C(=O)CSc2ccncc21)C(=O)N[C@@H](CC1CCCCC1)[C@@H](O)CC(=O)NCCCn1ccnc1	7.85
CC(C)C[C@H](NC(=O)[C@H](Cc1ccccc1)NC(=O)CC1CS(=O)(=O)c2ccccc21)C(=O)N[C@@H](CC1CCCCC1)[C@@H](O)CC(=O)NCCCn1ccnc1 (stereo partly specified)	7.92
CC(C)CCNC(=O)C[C@H](O)[C@H](CC1CCCCC1)NC(=O)[C@H](CC(C)C)NC(=O)[C@H](Cc1ccccc1)NC(=O)CC1CS(=O)(=O)c2ccccc21 (stereo partly specified)	8.00

Please examine the following record next.
QUERY: For the compound CC(C)C[C@H](NC(=O)[C@H](Cc1ccccc1)NC(=O)CC1CS(=O)(=O)c2ccccc21)C(=O)N[C@@H](CC1CCCCC1)[C@@H](O)CC(=O)NCCCc1cccnc1 (stereo partly specified) , report pIC50.
RESULT: 7.47
